Data origin, for the record: the supplement of paper PMC10567573

B1: ZNF263 (parent)
chain: PEASHLRFRRFRFQEAAGPREALS

# Variants of: B1
# experimental-details: protein stability index of a GFP-peptide fusion (GPS, HEK-293T) (PSI 1-6); higher = more stable;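 also: lentivirally expressed fusions sorted by FACS into six bins by GFP to DsRed ratio, PSI derived from sequencing read proportions per bin multiplied by bin number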
# condition-notes: c terminus: a fixed tail appended
experimental-endpoint: protein stability index
Field format: numeric only.

Past entries and their recorded results:
[[record]]
mut = "A16D"
experimental_endpoint = "protein stability index"
reported_result = 2.99

[[record]]
mut = "A16I"
experimental_endpoint = "protein stability index"
reported_result = 2.85

[[record]]
mut = "R10G"
experimental_endpoint = "protein stability index"
reported_result = 2.62

[[record]]
mut = "A16S"
experimental_endpoint = "protein stability index"
reported_result = 3.54

[[record]]
mut = "R7S"
experimental_endpoint = "protein stability index"
reported_result = 2.68

[[record]]
mut = "A16N"
experimental_endpoint = "protein stability index"
reported_result = 2.69

[[record]]
mut = "F13E"
experimental_endpoint = "protein stability index"
reported_result = 3.86

[[record]]
mut = "R9V"
experimental_endpoint = "protein stability index"
reported_result = 2.21


As a next step, examine the variant that follows.
Query: # input variant: R10C ; wanted: its protein stability index
Response: 2.28
